Assay: Pharmacokinetic studies of certain compounds in female Balb/c mice (Example 5)
Type: in vivo
Conditions: female, BALB/c, mouse, plasma, po, 30 mg/kg, I-2 PO 30 mg/kg, 2 hr, read-out: Plasma concentration Mean
VALUE_TYPE: concentration at 2 hr (ng/mL)
Value expressed in ng/mL; do not type the unit.

Give recorded concentration at 2 hr. CC(C)Cc1sc(Nc2ncc(-c3cccs3)cc2C(=O)O)nc1C1=CCCCC1 2330

###

Assay: Pharmacokinetic studies of certain compounds in female Balb/c mice (Example 5)
Format: in vivo
Settings: mouse, plasma, I-29 IV 1.48 mg/kg, read-out: Vss
VALUE_TYPE: Vd (L/kg)
The reply should be a number in L/kg, with the unit left off.

Give Vd for CC(C)Cc1sc(Nc2ncc(-c3cccs3)cc2C(=O)O)nc1C1CCC(F)(F)CC1 2.18

###

Assay: Pharmacokinetic studies of certain compounds in female Balb/c mice (Example 5)
Assay type: in vivo
Details: mouse, plasma, I-27 PO 30 mg/kg
VALUE_TYPE: Tmax (h)
// return numeric value only (unit: h, not printed)

Specify Tmax for CC(C)Cc1sc(Nc2ncc(-c3cccs3)cc2C(=O)O)nc1C1(C)CCCCC1 and stop. 2

###

Experiment: Pharmacokinetic study of I-11 in female BALB/c mice (Example 4)
Assay type: in vivo, Balb/c mouse
Conditions: mouse, plasma, PO 100 mg/kg
VALUE_TYPE: half-life (h)
All answers are understood in h, so give the number only.

Tell me measured half-life for CC(C)Cc1sc(Nc2ncc(-c3cccs3)cc2C(=O)O)nc1C(C)(C)C [Compound I-11] please. 3.19

###

Assay: Pharmacokinetic studies of certain compounds in female Balb/c mice (Example 5)
Assay type: in vivo
Conditions: female, Balb/c, mouse, plasma, po, 23.8 mg/kg, I-29 PO 23.8 mg/kg, 4 hr, read-out: Plasma concentration Individual
VALUE_TYPE: concentration at 4 hr (ng/mL)
# value in ng/mL; strip the unit string

Tell me concentration at 4 hr reported for CC(C)Cc1sc(Nc2ncc(-c3cccs3)cc2C(=O)O)nc1C1CCC(F)(F)CC1 [Compound I-29] 187

###

Assay: Pharmacokinetic studies of certain compounds in female Balb/c mice (Example 5)
Assay type: in vivo
Conditions: mouse, plasma, I-8 PO 50 mg/kg
Protocol: Pharmacokinetic studies were performed using Balb/c mice, 15-20 g, 6-9 weeks, female, N=9, purchased from Jihui Laboratory Animal Co. LTD. For compound I-29, Balb/c mice, 19-21 g, 9-11 weeks, female, N=9, were used. […] Plasma samples were analyzed using LC-MS using a calibration curve of known concentrations. The results of these studies are summarized in Tables 11-21 below and in FIGS. 2-8. […] BQL=below quantifiable limit for compound in female Balb/c mouse plasma samples. […]
VALUE_TYPE: half-life (h)
// units = h; emit number, no label

Please supply the value of reported half-life for the item CC(C)Cc1sc(Nc2ncc(-c3cccs3)cc2C(=O)O)nc1C1=CCCC1 [Compound I-8] 3.29

###

Assay: Pharmacokinetic studies of certain compounds in female Balb/c mice (Example 5)
Type: in vivo
Conditions: female, Balb/c, mouse, plasma, po, 30 mg/kg, I-3 PO 30 mg/kg, 2 hr, read-out: Plasma concentration Mean
Description: Pharmacokinetic studies were performed using Balb/c mice, 15-20 g, 6-9 weeks, female, N=9, purchased from Jihui Laboratory Animal Co. LTD. For compound I-29, Balb/c mice, 19-21 g, 9-11 weeks, female, N=9, were used. […] Plasma samples were analyzed using LC-MS using a calibration curve of known concentrations. The results of these studies are summarized in Tables 11-21 below and in FIGS. 2-8. […] BQL=below quantifiable limit for compound in female Balb/c mouse plasma samples. […]
VALUE_TYPE: concentration at 2 hr
Just the number plus its unit, please.

Respond only with concentration at 2 hr recorded for CC(C)Cc1sc(Nc2ncc(-c3cccs3)cc2C(=O)O)nc1C1CCCCC1 [Compound I-3] 1690 ng/mL

###

Experiment: Pharmacokinetic studies of certain compounds in female Balb/c mice (Example 5)
Format: in vivo
Settings: mouse, plasma, I-29 IV 1.48 mg/kg
VALUE_TYPE: C0 (ng/mL)
Give the number; ng/mL is assumed, so skip it.

# return recorded C0 for input CC(C)Cc1sc(Nc2ncc(-c3cccs3)cc2C(=O)O)nc1C1CCC(F)(F)CC1 1020

###

Experiment: Pharmacokinetic studies of certain compounds in female Balb/c mice (Example 5)
Type: in vivo
Conditions: female, Balb/c, mouse, plasma, iv, 1 mg/kg, I-27 IV 1 mg/kg, 24 hr, BQL = below quantifiable limit of 1.00 ng/mL, read-out: Plasma concentration Individual
VALUE_TYPE: concentration at 24 hr (ng/mL)
The figure you give is taken to be in ng/mL; do not add the unit.

Determine its reported concentration at 24 hr: CC(C)Cc1sc(Nc2ncc(-c3cccs3)cc2C(=O)O)nc1C1(C)CCCCC1 1.09

###

Test: Pharmacokinetic studies of certain compounds in female Balb/c mice (Example 5)
Assay type: in vivo
Settings: mouse, plasma, I-8 IV 1 mg/kg, read-out: Vss
VALUE_TYPE: Vd (L/kg)
Please state the figure in L/kg; there is no need to write the unit.

For the compound CC(C)Cc1sc(Nc2ncc(-c3cccs3)cc2C(=O)O)nc1C1=CCCC1 [Compound I-8] , report Vd. 0.657

###

Experiment: Pharmacokinetic studies of certain compounds in female Balb/c mice (Example 5)
Format: in vivo
Details: female, Balb/c, mouse, plasma, po, 50 mg/kg, I-8 PO 50 mg/kg, 0.083 hr, read-out: Plasma concentration Mean
VALUE_TYPE: concentration at 0.083 h (ng/mL)
Lab book: enter the figure in ng/mL, no units written.

Given the compound CC(C)Cc1sc(Nc2ncc(-c3cccs3)cc2C(=O)O)nc1C1=CCCC1 , write its reported concentration at 0.083 h. 333

###

Assay: Pharmacokinetic studies of certain compounds in female Balb/c mice (Example 5)
Format: in vivo
Conditions: female, Balb/c, mouse, plasma, iv, 1 mg/kg, I-3 IV 1 mg/kg, 0.25 hr, read-out: Plasma concentration Individual
VALUE_TYPE: concentration at 0.25 hr (ng/mL)
Note: unit ng/mL is implicit; provide only the numeric part.

For the compound CC(C)Cc1sc(Nc2ncc(-c3cccs3)cc2C(=O)O)nc1C1CCCCC1 , give its reported concentration at 0.25 hr. 511

###

Assay: Pharmacokinetic studies of certain compounds in female Balb/c mice (Example 5)
Format: in vivo
Conditions: female, Balb/c, mouse, plasma, po, 50 mg/kg, I-8 PO 50 mg/kg, 4 hr, read-out: Plasma concentration Individual
VALUE_TYPE: concentration at 4 h
// unit must come after the numeric part

Give recorded concentration at 4 h. CC(C)Cc1sc(Nc2ncc(-c3cccs3)cc2C(=O)O)nc1C1=CCCC1 530 ng/mL

###

Experiment: Pharmacokinetic studies of certain compounds in female Balb/c mice (Example 5)
Type: in vivo
Conditions: female, Balb/c, mouse, plasma, po, 30 mg/kg, I-1 PO 30 mg/kg, 8 hr, read-out: Plasma concentration Mean
VALUE_TYPE: concentration at 8 hr (ng/mL)
Form entry: value (ng/mL) — number only.

Identify measured concentration at 8 hr corresponding to CC(C)Cc1sc(Nc2ncc(-c3cccs3)cc2C(=O)O)nc1C1=CCOCC1 32.6

###

Assay: Pharmacokinetic studies of certain compounds in female Balb/c mice (Example 5)
Assay type: in vivo
Conditions: mouse, plasma, I-3 PO 30 mg/kg
VALUE_TYPE: AUC(0-t) (ng·h/mL)
Report as a plain number; the unit ng·h/mL is understood.

// Input: CC(C)Cc1sc(Nc2ncc(-c3cccs3)cc2C(=O)O)nc1C1CCCCC1 . Output its AUC(0-t) only. 8980

###

Experiment: Pharmacokinetic studies of certain compounds in female Balb/c mice (Example 5)
Assay type: in vivo
Details: mouse, plasma, I-8 PO 50 mg/kg
VALUE_TYPE: AUC(0-t) (ng·h/mL)
Report as a plain number; the unit ng·h/mL is understood.

Supply reported AUC(0-t) belonging to this compound: CC(C)Cc1sc(Nc2ncc(-c3cccs3)cc2C(=O)O)nc1C1=CCCC1 9930

###

Experiment: Pharmacokinetic studies of certain compounds in female Balb/c mice (Example 5)
Type: in vivo
Details: mouse, plasma, I-8 IV 1 mg/kg
VALUE_TYPE: AUC(0-t)
Answer as a quantity: numeral, then unit.

Give the value of AUC(0-t) reported for the following: CC(C)Cc1sc(Nc2ncc(-c3cccs3)cc2C(=O)O)nc1C1=CCCC1 705 ng·h/mL

###

Experiment: Pharmacokinetic studies of certain compounds in female Balb/c mice (Example 5)
Type: in vivo
Settings: mouse, plasma, I-1 PO 30 mg/kg
VALUE_TYPE: AUC(0-inf)
Entry format: amount then unit.

Annotate the molecule CC(C)Cc1sc(Nc2ncc(-c3cccs3)cc2C(=O)O)nc1C1=CCOCC1 with its measured AUC(0-inf). 1720 ng·h/mL
